targetDesc: SARS-CoV-2 3CL^pro main protease (Severe acute respiratory syndrome coronavirus 2, UniProt P0DTD1)
testName: FRET-based assay of SARS-CoV-2 3CL^pro main protease inhibition activity
Format: biochemical

[
  {
    "compound": "CC1=CC2(c3ccccc3)C3C(=O)N(NC(=O)c4cccnc4)C(=O)C3C1(NC(=O)c1ccccc1)C1C(=O)N(NC(=O)c3cccnc3)C(=O)C12 (stereo not shown) [11e]",
    "IC50": "~200 µM"
  }
]

----------
readout: melting point

[
  {
    "compound": "O=C(NN1C(=O)C2C(C1=O)C1(c3ccccc3)C=CC2(NC(=O)c2ccccc2)C2C(=O)N(NC(=O)c3ccncc3)C(=O)C21)c1ccncc1 (stereo not drawn) [11c]",
    "endpointResult": "289 to 293 °C"
  },
  {
    "compound": "O=C(NN1C(=O)C2C(C1=O)C1(c3ccccc3)C=CC2(NC(=O)c2ccccc2)C2C(=O)N(NC(=O)c3cccnc3)C(=O)C21)c1cccnc1 (stereo not drawn) [11b]",
    "endpointResult": "278 to 282 °C"
  },
  {
    "compound": "O=C(NC12C=CC(c3cccs3)(C3C(=O)N(NC(=O)c4ccccn4)C(=O)C31)C1C(=O)N(NC(=O)c3ccccn3)C(=O)C12)c1ccccc1 (stereo not drawn) [11f]",
    "endpointResult": "288 to 291 °C (dec.)"
  },
  {
    "compound": "C/C(=N\\NC(=O)c1cccnc1)C1=CC2(NC(=O)c3ccccc3)C3C(=O)N(NC(=O)c4cccnc4)C(=O)C3C1(C)C1C(=O)N(NC(=O)c3cccnc3)C(=O)C12 (stereo not drawn) [11o]",
    "endpointResult": "284 to 286 °C"
  },
  {
    "compound": "O=C(NC12C=CC(c3ccco3)(C3C(=O)N(NC(=O)c4ccccn4)C(=O)C31)C1C(=O)N(NC(=O)c3ccccn3)C(=O)C12)c1ccccc1 (stereo not drawn) [11i]",
    "endpointResult": "332 to 334 °C"
  },
  {
    "compound": "COc1ccc(C2=CC3(NC(=O)c4ccccc4)C4C(=O)N(NC(=O)c5ccncc5)C(=O)C4C2(C)C2C(=O)N(NC(=O)c4ccncc4)C(=O)C23)cc1 (stereo not drawn) [11n]",
    "endpointResult": "387 to 390 °C (dec.)"
  }
]
